molecular target: human DNA ligase III (Homo sapiens, UniProt P49916); experiment: High-throughput fluorescence-based DNA joining (ligation) assay; assay type: biochemical; conditions: 100 μM; read-out: In vitro % inhib hLigIII 100
Sequence (P49916 1-862 isoform P49916-4): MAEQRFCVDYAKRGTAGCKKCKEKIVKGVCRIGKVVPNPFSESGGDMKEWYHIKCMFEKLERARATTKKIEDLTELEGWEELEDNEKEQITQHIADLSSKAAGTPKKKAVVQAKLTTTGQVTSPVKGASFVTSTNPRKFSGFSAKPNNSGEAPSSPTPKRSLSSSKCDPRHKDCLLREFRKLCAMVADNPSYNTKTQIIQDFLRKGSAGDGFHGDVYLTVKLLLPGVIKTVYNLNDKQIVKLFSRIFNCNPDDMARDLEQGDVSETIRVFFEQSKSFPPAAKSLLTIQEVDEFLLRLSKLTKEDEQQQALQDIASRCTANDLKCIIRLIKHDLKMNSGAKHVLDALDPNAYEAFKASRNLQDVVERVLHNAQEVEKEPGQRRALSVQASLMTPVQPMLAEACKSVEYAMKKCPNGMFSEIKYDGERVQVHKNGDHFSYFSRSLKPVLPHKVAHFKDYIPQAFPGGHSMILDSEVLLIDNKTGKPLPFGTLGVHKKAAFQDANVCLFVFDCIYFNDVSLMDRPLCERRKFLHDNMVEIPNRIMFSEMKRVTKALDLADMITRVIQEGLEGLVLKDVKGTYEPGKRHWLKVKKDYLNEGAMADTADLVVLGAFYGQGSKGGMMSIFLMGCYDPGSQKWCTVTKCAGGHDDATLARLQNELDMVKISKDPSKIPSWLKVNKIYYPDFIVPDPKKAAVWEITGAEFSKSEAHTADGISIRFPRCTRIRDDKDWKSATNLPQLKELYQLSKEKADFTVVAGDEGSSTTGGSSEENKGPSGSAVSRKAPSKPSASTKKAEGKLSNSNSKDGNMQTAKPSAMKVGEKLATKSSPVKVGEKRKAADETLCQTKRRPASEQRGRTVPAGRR
Would you please tag the item yes (1) when its inhibition at 100 µM is 20% or above, and no (0) when it is below?

Problem: Please check the record O=C1Nc2c(C(=O)O)cccc2C1=O [Compound 25] and state if its inhibition at 100 µM is at or above 20%.
Result: yes (1)

Problem: Please check the record O=C(O)Cc1cncc(Br)c1 [Compound 122] and state if its inhibition at 100 µM is at or above 20%.
Result: no (0)

Problem: Please check the record Cc1oc(C(=O)O)cc1CSCc1cc(C(=O)O)c(C)o1 [Compound 197] and state if its inhibition at 100 µM is at or above 20%.
Result: yes (1)

Problem: Please check the record O=C(O)CSc1cc(Cl)c2nonc2c1[N+](=O)[O-] [Compound 64] and state if its inhibition at 100 µM is at or above 20%.
Result: yes (1)

Problem: Please check the record O=C(O)c1cnn2c(C(F)(F)F)cc(-c3ccco3)nc12 [Compound 215] and state if its inhibition at 100 µM is at or above 20%.
Result: no (0)

Problem: Please check the record N#Cc1cn(CCCCCCCc2[nH]c(=O)[nH]c(=O)c2C#N)c(=O)[nH]c1=O [Compound 209] and state if its inhibition at 100 µM is at or above 20%.
Result: yes (1)

Problem: Please check the record Cc1c(Br)cc(NCC(=O)N/N=C\c2cc([N+](=O)[O-])ccc2O)cc1Br [Compound 67] and state if its inhibition at 100 µM is at or above 20%.
Result: yes (1)

Problem: Please check the record CCCCC(=O)c1ccc(O)cc1O [Compound 213] and state if its inhibition at 100 µM is at or above 20%.
Result: yes (1)

Problem: Please check the record O=c1[nH]ncc(N/N=C\c2ccc(O)c([N+](=O)[O-])c2)c1Cl [Compound 82] and state if its inhibition at 100 µM is at or above 20%.
Result: yes (1)

Problem: Please check the record C/C(O)=C1/C(=O)N(c2nc3ccccc3s2)N=C1c1ccccc1 [Compound 43] and state if its inhibition at 100 µM is at or above 20%.
Result: no (0)

----------
target: T4 DNA ligase (Enterobacteria phage T4, UniProt P00970); construct: purchased NEB; assay: High-throughput fluorescence-based DNA joining assay, non-specific inhibitor control; assay type: biochemical, bacteriophage T4; conditions: read-out: % activity Inhibition LigT4 100 uM
Sequence (P00970 whole entry): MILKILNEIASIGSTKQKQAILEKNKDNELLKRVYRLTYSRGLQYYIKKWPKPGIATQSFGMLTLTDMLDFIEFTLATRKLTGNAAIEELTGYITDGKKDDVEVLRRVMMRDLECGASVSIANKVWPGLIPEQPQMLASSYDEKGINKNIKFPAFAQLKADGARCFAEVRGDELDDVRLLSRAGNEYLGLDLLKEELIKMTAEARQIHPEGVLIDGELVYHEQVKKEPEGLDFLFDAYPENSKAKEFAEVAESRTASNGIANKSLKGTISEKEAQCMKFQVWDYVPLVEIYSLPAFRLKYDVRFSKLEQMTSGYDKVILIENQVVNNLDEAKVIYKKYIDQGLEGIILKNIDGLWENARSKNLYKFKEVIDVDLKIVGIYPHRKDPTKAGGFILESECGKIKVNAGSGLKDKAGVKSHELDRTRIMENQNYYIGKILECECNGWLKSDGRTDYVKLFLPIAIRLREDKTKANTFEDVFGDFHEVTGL
OUTCOME MEASURE: inhibition at 100 µM (%)
// return numeric value only (unit: %, not printed)

inhibition at 100 µM measured on Nc1nonc1C(=O)O [Compound 54] = 6.9

inhibition at 100 µM measured on Cc1[nH]c2ccc(C(=O)O)cc2c1CC(=O)O [Compound 35] = 3.7

inhibition at 100 µM measured on O=c1[nH]ncc(N/N=C\c2ccc(O)c([N+](=O)[O-])c2)c1Cl [Compound 82] = 13.9

inhibition at 100 µM measured on O=C(O)Cn1nnnc1-c1ccc(F)cc1 [Compound 37] = 3.7

inhibition at 100 µM measured on COc1cccc(Cn2nnc(C(=O)O)c2C(=O)O)c1 [Compound 103] = 6.2

inhibition at 100 µM measured on Cc1oc(C(=O)O)cc1CSCc1cc(C(=O)O)c(C)o1 [Compound 197] = 24.4

inhibition at 100 µM measured on C/C(O)=C1/C(=O)N(c2nc3ccccc3s2)N=C1c1ccccc1 [Compound 43] = 0

inhibition at 100 µM measured on Nc1nc(S)nc(O)c1/N=C/c1ccccc1 [Compound 189] = 3.2

inhibition at 100 µM measured on Cc1c(Br)cc(NCC(=O)N/N=C\c2cc([N+](=O)[O-])ccc2O)cc1Br [Compound 67] = 0

inhibition at 100 µM measured on COc1ccc(C(CC(=O)O)NC(=O)c2ccco2)cc1 (stereo not shown) [Compound 207] = 10

inhibition at 100 µM measured on O=C(O)c1ccc(C(=O)O)c(C(=O)O)c1 [Compound 53] = 3.7

inhibition at 100 µM measured on O=C(c1ccc(O)cc1)c1ccccc1O [Compound 200] = 0

inhibition at 100 µM measured on O=C(O)CSc1cc(Cl)c2nonc2c1[N+](=O)[O-] [Compound 64] = 18.4

inhibition at 100 µM measured on O=C(O)CN1C(=O)c2ccc([N+](=O)[O-])cc2C1=O [Compound 90] = 1.6

inhibition at 100 µM measured on O=C1Nc2c(C(=O)O)cccc2C1=O [Compound 25] = 12.9

inhibition at 100 µM measured on CCC(Nc1ncnc2ccccc12)C(=O)O (stereo not shown) [Compound 51] = 0

inhibition at 100 µM measured on CSc1ccc(C(=O)O)s1 [Compound 1] = 0

inhibition at 100 µM measured on COc1ccc(-c2cnc3c(O)nc(O)nc3n2)cc1 [Compound 190] = 5.4

inhibition at 100 µM measured on O=C(O)c1ccc(Sc2ccccn2)c([N+](=O)[O-])c1 [Compound 47] = 2.2
